B1: Chromodomain-helicase-DNA-binding protein 4, residues 365 to 417; numbered along this chain, Q14839 (parent)
chain: YETDHQDYCEVCQQGGEIILCDTCPRAYHMVCLDPDMEKAPEGKWSCPHCEKE

variants of: B1; experiment: abundance fitness (aPCA) (normalised: wild type 0, dead -1); higher = more abundant; growth selection in yeast, the domain comes from the species named; conditions: Homo sapiens
# Lookup of reported abundance fitness keyed by entry
Kindly provide the number alone.

[
  {
    "VARIANT DESIGNATION": "Q13S",
    "abundance fitness": 0.008
  }
]

For the variant G43Q , what abundance fitness is on record?
-0.078

Query: abundance fitness; subject: A40P
-0.209
